Give GI50 for every item shown.
- Tested on: NCI-H460
- test name: NCI tumour cell line growth inhibition, 48 h
Activity calls are given as the source filed them. Cut-off read from the data, not from the text of the source: active = GI50 up to about 1.1 µM and inactive = higher.

Problem: # GI50 lookup, item `O=C1C=CC(=CC=C2C=CN(CCCCCCCCCCC(=O)NCCCCCCCCCCCC(=O)O)C=C2)C=C1`
Result: > 100 µM (inactive)

Problem: Query `NC(=O)N/N=C1/CCCC/C1=C\c1ccccc1` next
Result: > 100 µM (inactive)

Problem: Query `O=S(O)CCCCCSSCCCCSSCCCCCS(=O)O` next
Result: > 100 µM (inactive)

Problem: Query CCOC(=O)CSc1nnc(C(Sc2nc(-c3ccccc3)c(-c3ccccc3)[nH]2)C(C)C)n1-c1ccccc1 (stereo not drawn) next
Result: 17.5 µM (inactive)

Problem: Query `Cc1c(-c2nc(N)nc(C3CC3)c2C)nc(N)nc1C1CC1` next
Result: > 100 µM (inactive)

Problem: Query `CC(=O)OCCn1c(Cc2ccc(Cl)cc2)nn(C(C)=O)c1=O` next
Result: > 100 µM (inactive)

Problem: Query CCN(CC)CCCC(C)Nc1c(Sc2cnc3cc(Cl)ccc3c2NC(C)CCCN(CC)CC)cnc2cc(Cl)ccc12 (stereo not drawn) next
Result: 1.74 µM (inactive)

Problem: Query `O=[N+]([O-])c1ccc2c(c1)Sc1ccccc1N2CCCCCl` next
Result: > 100 µM (inactive)

Problem: Query CC1(C)[C@@H]2CC[C@@]1(C)C1(S[S+]1[O-])C21Cc2ccccc2C1 (stereo partly drawn) next
Result: 21.5 µM (inactive)

Problem: Query `N/C(=N\N=C\c1nc2ccccc2o1)c1cnccn1` next
Result: 72.9 µM (inactive)

Problem: Query `COC(=O)Cc1ccc2c(cnn2-c2ccccc2)c1OC` next
Result: > 10 µM (inactive)

Problem: Query CC(=O)OCC1OC(OCC2OC(N3C(=S)N[C@H]([C@@H](O)[C@H](O)[C@H](O)CO)[C@H]3O)C(OC(C)=O)C(OC(C)=O)C2OC(C)=O)C(OC(C)=O)C(OC(C)=O)C1OC(C)=O (stereo partly drawn) next
Result: > 100 µM (inactive)

Problem: Query `CCCCCC(=O)n1[nH]c(=O)n(-c2ccc(OC)cc2)c1=O` next
Result: > 100 µM (inactive)

Problem: Query COC(=O)/C=C1/CCC(C)(C(=O)NS(=O)(=O)c2ccc(C)cc2)C1(C)C (stereo not drawn) next
Result: > 100 µM (inactive)

Problem: Query N#CC(/N=N/c1ccccc1C(=O)O)C(N)=O (stereo not drawn) next
Result: > 100 µM (inactive)

Problem: Query CCOP(=O)(OCC)OC1C=CC2CCC1C2 (stereo not drawn) next
Result: > 100 µM (inactive)

Problem: Query `Cc1ccccc1C(=N)c1ccccc1Cc1cccc2ccccc12` next
Result: 15.5 µM (inactive)

Problem: Query `Fc1ccc(/N=C/C=C/Nc2ccc(F)cc2)cc1` next
Result: 6.19 µM (inactive)

Problem: Query CC1=C([S+]([O-])c2ccc(C)cc2)CCC2(CCCCO2)O1 (stereo not drawn) next
Result: > 100 µM (inactive)

Problem: Query CN(C)C(CN)CC1=C(CC(CN)N(C)C)CCC1 (stereo not drawn) next
Result: > 100 µM (inactive)

Problem: Query `Cc1ccccc1Nc1cn(CCOc2ccccc2)c(=O)n(CCOc2ccccc2)c1=O` next
Result: > 100 µM (inactive)

Problem: Query COc1ccc2c3c1C(=O)CCCC3CO2 (stereo not drawn) next
Result: > 100 µM (inactive)

Problem: Query `Cc1cc2c(C(C)C)c(O)c(O)c(/C=N/c3cc(C(F)(F)F)ccc3Cl)c2c(O)c1-c1c(C)cc2c(C(C)C)c(O)c(O)c(/C=N/c3cc(C(F)(F)F)ccc3Cl)c2c1O` next
Result: 31.3 µM (inactive)

Problem: Query `COc1ccc(SCc2cc(OC)ccc2OC)cc1` next
Result: 37.4 µM (inactive)

Problem: Query CC1C2CC(C(S(=O)(=O)O)C2=O)C1(C)C (stereo not drawn) next
Result: > 100 µM (inactive)

Problem: Query `C=C1CN(Cc2ccccc2)[C@@H]2CCCCC[C@H](C#N)[C@H]12` next
Result: > 78.2 µM (inactive)

Problem: Query Cc1ccc(C)c(NC(=O)C(=O)C2C(=O)C3=C(CC2(C)C)Nc2ccccc2S3)c1 (stereo not drawn) next
Result: > 100 µM (inactive)

Problem: Query CC1=CC=NN2C(=O)[C@H](C)C2C1 (stereo partly drawn) next
Result: > 100 µM (inactive)

Problem: Query `Nc1ccc2c(c1)C(=O)c1ccc(F)cc1-2` next
Result: > 100 µM (inactive)

Problem: Query CCOC(=O)C1=CC(C)(C(=O)OCC)Nc2c(nc(OC)n(C)c2=O)N1 (stereo not drawn) next
Result: > 10 µM (inactive)

Problem: Query CCCCCCCCCCCCCCCCOCC(CC(F)(F)P(=O)(OCC)OCC)OC(C)=O (stereo not drawn) next
Result: 10.7 µM (inactive)

Problem: Query COC(=O)C1=C(C(=O)OC)C2(C3C(SC)=CC(C)(C)CC3S1)N(Cc1ccccc1)CCN2Cc1ccccc1 (stereo not drawn) next
Result: > 100 µM (inactive)

Problem: Query `COc1c(CC(C)=O)c2ccccc2n1C(C)=O` next
Result: > 100 µM (inactive)

Problem: Query CC(C(N)C(=O)NC(C(=O)O)C1OC(n2ccc(=O)[nH]c2=O)C(O)C1O)C(O)c1ccc(O)cn1 (stereo not drawn) next
Result: > 100 µM (inactive)

Problem: Query `COC(=O)CN1CCN(c2cccc3c2CCCC3)CC1` next
Result: 46.8 µM (inactive)

Problem: Query `C=CCCCCCCC#CCCCCCCCCCC[C@@H]1C(=O)O[C@H](C)[C@@H]1O.CCCCCCCCC#CCCCCCCCCCC[C@@H]1C(=O)O[C@H](C)[C@@H]1O` next
Result: 11.7 µM (inactive)

Problem: Query `C[n+]1ccccc1/C=C/c1ccc2c(c1)OCO2` next
Result: > 10 µM (inactive)

Problem: Query `COCCOCOC(C)(C)[C@H](CCO)O[Si](c1ccccc1)(c1ccccc1)C(C)(C)C` next
Result: 5.15 µM (inactive)

* * *

Give GI50 for every item shown.
- Test system: SNB-19
- test name: NCI tumour cell line growth inhibition, 48 h
Activity calls are given as the source filed them. Rule as the data show it: active = GI50 up to about 1.1 µM and inactive = higher.

Problem: # GI50 lookup, item `Cc1c(C)c2c(c(N)c1C#N)C(=O)N(CCN1CCNCC1)C2=O`
Result: 49.3 µM (inactive)

Problem: Query `Cc1ccccc1C(=N)c1ccccc1Cc1cccc2ccccc12` next
Result: 56.1 µM (inactive)

Problem: Query C=C[C@H]1CN2CCc3c([nH]c4c([C@H]5CCCN5C)c(O)ccc34)[C@@H]2C[C@@H]1C[C@H]1c2[nH]c3ccccc3c2CCN1C [STRYCHNOPENTAMINE] next
Result: 1.95 µM (inactive)

Problem: Query `O=C(OC(=O)n1ccc2ccccc21)n1ccc2ccccc21` next
Result: > 100 µM (inactive)

Problem: Query c1ccc2c(c1)Sc1ccccc1N2CC1CN2CCC1CC2 (stereo not given) [MEQUITAZINE] next
Result: 9.23 µM (inactive)

Problem: Query CC1C2CC(C(S(=O)(=O)O)C2=O)C1(C)C (stereo not given) next
Result: > 100 µM (inactive)

Problem: Query `Cc1c(NC(=S)Nc2ccc([N+](=O)[O-])cc2)c(=O)n(-c2ccccc2)n1C` next
Result: > 100 µM (inactive)

Problem: Query `Nc1ccc2c(c1)C(=O)c1ccc(F)cc1-2` next
Result: > 100 µM (inactive)

Problem: Query `C(=N\Cc1ccccc1)/c1ccccc1-c1ccccc1/C=N/Cc1ccccc1` next
Result: > 10 µM (inactive)

Problem: Query O=C1c2ccccc2C(=O)c2c(NCC3CO3)cccc21 (stereo not given) next
Result: > 57.3 µM (inactive)

* * *

Give GI50 for every item shown.
- Test system: HL-60
- test name: NCI tumour cell line growth inhibition, 48 h
The source made the active and inactive calls. Cut-off read from the data, not from the text of the source: active = GI50 up to about 1.1 µM and inactive = higher.

Problem: # GI50 lookup, item `NC1=C(N2CCOCC2)C(=O)NC2=N/C(=C\c3ccccc3O)C(=O)N21`
Result: 41.6 µM (inactive)

Problem: Query C=C1CCOC2(C(O)C(C)(O)CO)NC(=O)C1(O)NC2=O (stereo not given) next
Result: > 100 µM (inactive)

Problem: Query CC(C)(C)N/N=N/c1cn(C2OC(CO)C(O)C2O)c(=O)[nH]c1=O (stereo not given) next
Result: 50.9 µM (inactive)

Problem: Query CN1C(=O)C(c2c[nH]c3ccccc23)N(C)C(=O)C1c1c[nH]c2ccccc12 (stereo not given) next
Result: > 100 µM (inactive)

Problem: Query `O=C1Oc2cc3c(c4cccc1c24)OCN(c1ccccc1)C3` next
Result: 43.5 µM (inactive)

* * *

- Tested on: HCT-116
- test name: NCI tumour cell line growth inhibition, 48 h
Where a name gives a salt, the structure may show the parent alone. Calls of active or inactive are those of the source. Rule as the data show it: active = GI50 up to about 1.1 µM and inactive = higher.
I would appreciate it if you answered using one of these outcomes: 1 (active), -1 (inactive)

Problem: Identify the outcome logged in this assay for the compound shown: `CC1=C(CO)C2=C(C)C3(CC3)[C@@](C)(O)C(=O)C2=C1`
Result: 1

Problem: Query `CCOc1ccccc1NC(=O)CCC(=O)OC` next
Result: -1

Problem: Query `CN(C)c1ccc2c(SCC(=O)OCC(=O)[C@@]3(O)CC[C@H]4[C@@H]5CCC6=CC(=O)C=C[C@]6(C)[C@H]5C(=O)C[C@@]43C)c3ccc(N(C)C)cc3nc2c1` next
Result: -1

Problem: Query CC(=O)N1CCC2(c3ccccc3N(C(C)=O)C2c2ccc(O)cc2)C1C(=O)O (stereo not drawn) next
Result: -1

Problem: Query `Clc1ccc(NCc2nnc(CCCCCCCCc3nnc(CNc4ccc(Cl)cc4)o3)o2)cc1` next
Result: -1

Problem: Query `COc1ccc(/C=C2\N=C(SC)N(CN3CCOCC3)C2=O)cc1` next
Result: -1

Problem: Query NCCCNCCCCNCCCN [SPERMINE TETRAHYDROCHLORIDE] next
Result: -1

Problem: Query N#CC1CC2(CCN1C(=O)c1ccccc1)OCCO2 (stereo not drawn) next
Result: -1

Problem: Query `Cc1nc(-c2ccc([N+](=O)[O-])cc2)cn2c1nc1ccccc12` next
Result: -1

Problem: Query `O=C1/C(=C/c2ccco2)N=C(c2ccccc2)N1c1cc2cc(Sc3ccccc3)ccc2[nH]1` next
Result: -1

Problem: Query CC1=NN(c2cccc(Cl)c2)C2(SCC(=O)N2c2nc3ccccc3s2)/C1=C\c1ccccc1 (stereo not drawn) next
Result: -1

Problem: Query Cc1ccc(S(=O)(=O)C(CC(=O)N2CCCC2)C(=O)c2ccccc2)cc1 (stereo not drawn) next
Result: -1

Problem: Query COC[C@@H](C[C@H]1O[C@@](O)([C@H](O)[C@@H]2C[C@H](OC)[C@@H](O)CC/C=C(C)/C=C/[C@@H](O[C@@H]3O[C@@H](C)[C@H](OC)[C@@H](O)[C@@H]3O)[C@H](C)/C=C(C)/C=C(C)/C=C(\C)C(=O)O2)[C@H](C)[C@@H](O)[C@H]1C)O[C@H]1C[C@](C)(O)[C@@H](O[C@H]2C[C@@H](OC)[C@H](O)[C@@H](C)O2)C(C)O1 (stereo partly drawn) next
Result: -1

Problem: Query CC1CN=C(Nc2cccc(F)c2)S1 (stereo not drawn) next
Result: -1

Problem: Query `CCCCCCCCCCCCCS(=O)(=O)O` next
Result: -1

Problem: Query O=C(c1c(O)cc(O)cc1O)C1Cc2ccccc21 (stereo not drawn) next
Result: -1

Problem: Query NC(=O)CCC(NC(=O)Cc1ccccc1)C(=O)O (stereo not drawn) next
Result: -1

Problem: Query N=C(N)NCCCC(NC(=O)OCCCCCCn1ccc(N)nc1=O)C(=O)O (stereo not drawn) next
Result: -1
